assay_remarks: Inhibition of C3b activation relative to compstatin
Positions of bridges follow the written chain, without caps; N, C: chain ends. Non-standard residues stand in square brackets, D forms with d. Residues, ends and D or L forms follow the SMILES beside them. Abu = CC[C@H](N)C(=O)O
Quick rule for you: logIC50 under -0.1 gets Criterion met, anything else gets Criterion not met.

Check out these entries, answers already filled in.
CC[C@H](C)[C@H](NC(C)=O)C(=O)N[C@H]1CSSC[C@@H](C(=O)N[C@H](C(N)=O)[C@@H](C)O)NC(=O)[C@H](CCCNC(=N)N)NC(=O)[C@H](Cc2cnc[nH]2)NC(=O)[C@H](C)NC(=O)CNC(=O)[C@H](Cc2c[nH]c3cc(F)ccc23)NC(=O)[C@H](CC(=O)O)NC(=O)[C@H](CCC(N)=O)NC(=O)[C@H](Cc2c[nH]c3cc(F)ccc23)NC(=O)[C@H](C(C)C)NC1=O = Criterion not met
CC(C)[C@@H]1NC(=O)[C@H](C(C)C)NC(=O)[C@@H](N)CSSC[C@@H](C(=O)O)NC(=O)[C@H](CCCNC(=N)N)NC(=O)[C@H](Cc2cnc[nH]2)NC(=O)[C@H](C)NC(=O)CNC(=O)[C@H](Cc2c[nH]c3ccccc23)NC(=O)[C@H](CC(=O)O)NC(=O)[C@H](CCC(N)=O)NC1=O (H-CVVQDWGAHRC-OH; disulfide 1-11) = Criterion not met
CC[C@H](C)[C@H](NC(C)=O)C(=O)N[C@H]1CSSC[C@@H](C(=O)N[C@H](C(N)=O)[C@H](C)O)NC(=O)[C@H](CCCNC(=N)N)NC(=O)[C@H](Cc2cnc[nH]2)NC(=O)[C@H](C)NC(=O)CNC(=O)[C@H](Cc2c[nH]c3ccccc23)NC(=O)[C@H](CC(=O)O)NC(=O)[C@H](CCC(N)=O)NC(=O)[C@H](Cc2c[nH]c3ccc(F)cc23)NC(=O)[C@H](C(C)C)NC1=O = Criterion not met

Exercise: Is logIC50 of CC[C@@H]1NC(=O)CNC(=O)[C@H](Cc2c[nH]c3ccccc23)NC(=O)[C@H](CC(=O)O)NC(=O)[C@H](CCC(N)=O)NC(=O)[C@H](Cc2c[nH]c3ccccc23)NC(=O)[C@H](C(C)C)NC(=O)[C@@H](NC(=O)[C@@H](NC(C)=O)[C@@H](C)CC)CSSC[C@@H](C(=O)N[C@H](C(N)=O)[C@@H](C)O)NC(=O)[C@H](CCCNC(=N)N)NC(=O)[C@H](Cc2cnc[nH]2)NC1=O (Ac-ICVWQDWG[Abu]HRCT-NH2; disulfide 2-12) strictly below -0.1?
Solution: Criterion not met

Exercise: Again, but for CC[C@H](C)[C@H](NC(C)=O)C(=O)N[C@H]1CSSC[C@@H](C(=O)N[C@H](C(N)=O)[C@@H](C)O)NC(=O)[C@H](CCCNC(=N)N)NC(=O)[C@H](Cc2cnc[nH]2)NC(=O)[C@H](C)NC(=O)CNC(=O)[C@H](Cc2c[nH]c3ccccc23)NC(=O)[C@H](CC(=O)O)NC(=O)[C@H](CCC(N)=O)NC(=O)[C@H](Cc2cn(C)c3ccccc23)NC(=O)[C@H](C(C)C)NC1=O
Solution: Criterion not met

Exercise: Please answer likewise for CC[C@H](C)[C@H](N)C(=O)N[C@H]1CSSC[C@@H](C(=O)N[C@H](C(N)=O)[C@@H](C)O)NC(=O)[C@H](CCCCN)NC(=O)[C@H](Cc2cnc[nH]2)NC(=O)[C@H](Cc2cnc[nH]2)NC(=O)CNC(=O)[C@H](Cc2c[nH]c3ccccc23)NC(=O)[C@H](CC(=O)O)NC(=O)[C@H](CCC(N)=O)NC(=O)[C@H](C(C)C)NC(=O)[C@H](C(C)C)NC1=O (H-ICVVQDWGHHKCT-NH2; disulfide 2-12)
Solution: Criterion met

* * *

assay_remarks: Inhibition of C3b activation relative to compstatin
value_kind: logIC50
Field format: numeric only.

Exercise: I would be grateful if you could share the reported logIC50 for CC[C@H](C)[C@H](NC(C)=O)C(=O)N[C@H]1CSSC[C@@H](C(=O)N[C@H](C(N)=O)[C@@H](C)O)NC(=O)[C@H](CCCNC(=N)N)NC(=O)[C@H](Cc2cnc[nH]2)NC(=O)[C@H](C)NC(=O)CNC(=O)[C@H](Cc2c[nH]c3ccccc23)NC(=O)[C@H](CC(=O)O)NC(=O)[C@H](CCC(N)=O)NC(=O)[C@H](Cc2cccc3ccccc23)NC(=O)[C@H](C(C)C)NC1=O .
Solution: 1.99

* * *

Here, each record is paired with measured logIC50 data.
assay_remarks: Inhibition of C3b activation relative to compstatin
Positions of bridges follow the written chain, without caps; N, C: chain ends. Residues, ends and D or L forms follow the SMILES beside them.
# respond with the number and nothing more

CC[C@H](C)[C@H](NC(C)=O)C(=O)N[C@H]1CSSC[C@@H](C(=O)N[C@H](C(N)=O)[C@@H](C)O)NC(=O)[C@H](CCCNC(=N)N)NC(=O)[C@H](Cc2cnc[nH]2)NC(=O)[C@H](C)NC(=O)CNC(=O)[C@H](Cc2c[nH]c3ccccc23)NC(=O)[C@H](CC(=O)O)NC(=O)[C@H](CCC(N)=O)NC(=O)[C@H](Cc2ccc(O)cc2)NC(=O)[C@H](C(C)C)NC1=O = 1.17
CC[C@H](C)[C@H](NC(=O)[C@@H]1CSSC[C@H](NC(=O)[C@@H](NC(C)=O)[C@@H](C)CC)C(=O)N[C@@H](C(C)C)C(=O)N[C@@H](C)C(=O)N[C@@H](CCC(N)=O)C(=O)N[C@@H](CC(=O)O)C(=O)N[C@@H](Cc2c[nH]c3ccccc23)C(=O)NCC(=O)N[C@@H](C)C(=O)N[C@@H](Cc2cnc[nH]2)C(=O)N[C@@H](CCCNC(=N)N)C(=O)N1)C(N)=O (Ac-ICVAQDWGAHRCI-NH2; disulfide 2-12) = 0.477

Exercise: Which measured logIC50 value corresponds to CC[C@H](C)[C@H](N)C(=O)N[C@H]1CSSC[C@@H](C(=O)N[C@H](C(=O)O)[C@@H](C)O)NC(=O)[C@H](CCCNC(=N)N)NC(=O)[C@H](Cc2cnc[nH]2)NC(=O)[C@H](C)NC(=O)CNC(=O)[C@H](Cc2c[nH]c3ccccc23)NC(=O)[C@H](CC(=O)O)NC(=O)[C@H](CCC(N)=O)NC(=O)[C@H](C2Cc3ccccc3C2)NC(=O)[C@H](C(C)C)NC1=O ?
Solution: 1.55

* * *

assay_remarks: Inhibition of C3b activation relative to compstatin
compounds and their reported logIC50
Answer as a number with no unit attached.

CC[C@H](C)[C@H](NC(C)=O)C(=O)N[C@H]1CSSC[C@@H](C(=O)N[C@H](C(N)=O)[C@@H](C)O)NC(=O)[C@H](CCCNC(=N)N)NC(=O)[C@H](Cc2cnc[nH]2)NC(=O)[C@H](C)NC(=O)CNC(=O)[C@H](Cc2c[nH]c3ccccc23)NC(=O)[C@H](CC(=O)O)NC(=O)[C@H](CCC(N)=O)NC(=O)[C@H](Cc2c[nH]c3ccc(C)cc23)NC(=O)[C@H](C(C)C)NC1=O = 1.79

Exercise: Which logIC50 is listed for CC[C@H](C)[C@H](NC(C)=O)C(=O)N[C@H]1CSSC[C@@H](C(=O)N[C@H](C(N)=O)[C@@H](C)O)NC(=O)[C@H](CCCNC(=N)N)NC(=O)[C@H](Cc2cnc[nH]2)NC(=O)[C@H](C)NC(=O)CNC(=O)[C@H](Cc2c[nH]c3ccc(F)cc23)NC(=O)[C@H](CC(=O)O)NC(=O)[C@H](CCC(N)=O)NC(=O)[C@H](Cc2cn(C)c3ccccc23)NC(=O)[C@H](C(C)C)NC1=O ?
Solution: 2.42

Exercise: Next: CC[C@H](C)[C@H](NC(C)=O)C(=O)N[C@H]1CSSC[C@@H](C(=O)N[C@H](C(N)=O)[C@@H](C)O)NC(=O)[C@H](CCCNC(=N)N)NC(=O)[C@H](Cc2cnc[nH]2)NC(=O)[C@H](C)NC(=O)CNC(=O)[C@H](Cc2c[nH]c3ccccc23)NC(=O)[C@H](CC(=O)O)NC(=O)[C@H](CCC(N)=O)NC(=O)[C@H](Cc2csc3ccccc23)NC(=O)[C@H](C(C)C)NC1=O
Solution: 1.83

* * *

assay_remarks: Inhibition of C3b activation relative to compstatin
Positions of bridges follow the written chain, without caps; N, C: chain ends. Residues, ends and D or L forms follow the SMILES beside them.
value_kind: logIC50
Enter a number only.

# count of solved cases: 2
CC[C@H](C)[C@H](NC(C)=O)C(=O)N[C@H]1CSSC[C@@H](C(=O)N[C@H](C(N)=O)[C@@H](C)O)NC(=O)[C@H](CCCNC(=N)N)NC(=O)[C@H](Cc2cnc[nH]2)NC(=O)[C@H](C)NC(=O)CNC(=O)[C@H](Cc2c[nH]c3ccccc23)NC(=O)[C@H](CC(=O)O)NC(=O)[C@H](CCC(N)=O)NC(=O)[C@H](C(C)C)NC(=O)[C@H](C(C)C)NC1=O (Ac-ICVVQDWGAHRCT-NH2; disulfide 2-12) = 0.617
CC[C@H](C)[C@H](N)C(=O)N[C@H]1CSSC[C@@H](C(=O)N[C@H](C(=O)O)[C@@H](C)O)NC(=O)[C@H](CCCNC(=N)N)NC(=O)[C@H](Cc2cnc[nH]2)NC(=O)[C@H](C)NC(=O)CNC(=O)[C@H](Cc2c[nH]c3ccccc23)NC(=O)[C@H](CC(=O)O)NC(=O)[C@H](CCC(N)=O)NC(=O)[C@H](Cc2ccc3ccccc3c2)NC(=O)[C@H](C(C)C)NC1=O = 1.58

With those in mind, consider the next compound.
Exercise: Bench note: what logIC50 did CC[C@H](C)[C@H](NC(C)=O)C(=O)N[C@H]1CSSC[C@@H](C(=O)N[C@H](C(=O)O)[C@@H](C)O)NC(=O)[C@H](CCCNC(=N)N)NC(=O)[C@H](Cc2cnc[nH]2)NC(=O)[C@H](C)NC(=O)CNC(=O)[C@H](Cc2c[nH]c3ccccc23)NC(=O)[C@H](CC(=O)O)NC(=O)[C@H](CCC(N)=O)NC(=O)[C@@H](Cc2csc3ccccc23)NC(=O)[C@H](C(C)C)NC1=O show?
Solution: 1.83
